- Experimental System: T1, Regnase-1 PIN domain, catalytically inactive monomeric mutant (DDNN and D278R) (Mus musculus, UniProt Q5D1E7 134-295, D226N | D244N | D278R)
- T1 construct: Regnase-1 (Zc3h12a), Mus musculus, PIN domain; the discussion gives PIN as residues 134-295; Limits as for m1; Uniformly 15N-labelled or unlabelled in the NMR experiments; not shown: GST, N-terminal, cleaved
- T1 sequence (looked up): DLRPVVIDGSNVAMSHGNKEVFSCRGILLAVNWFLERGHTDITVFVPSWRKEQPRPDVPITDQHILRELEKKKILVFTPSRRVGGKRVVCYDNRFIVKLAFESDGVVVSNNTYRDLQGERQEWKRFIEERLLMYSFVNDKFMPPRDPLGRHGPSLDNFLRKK
- Test Description: NMR titration; 1H-15N HSQC of 15N-labeled NTD at 100 uM with unlabeled PIN (DDNN, D278R) added (3 or 6 molar equivalents); 298 K; apparent Kd from the titration curve of L58
- Assay Setup: both partners purified
Readout Type: Kd (µM)
Answer with a number only, understood to be in µM.

input: Kd lookup needed for TSELQMKVDFFRKLGYSSSEIHSVLQKLGVQADTNTVLGELVKHG (domain or fragment, Mus musculus, Regnase-1 (Zc3h12a), Mus musculus, N-terminal domain; residues 90-133 are called the connection between the NTD and PIN; Uniformly 15N-labelled or unlabelled in the NMR experiments; not shown: GST, N-terminal, cleaved) [Regnase-1 N-terminal domain (NTD)] , thanks.
output: 110
